Assay: Primary qHTS for inhibitors of nuclear receptor binding SET domain protein 2 (NSD2) in an RCH-ACV wild type WT cells (2C) (AID 1645877); note: nearly all actives have a fitted effect of over 70% in size
Conditions: RCH-ACV (leukaemia line) NSD2 WT (2C) viability, CellTiter-Glo, 72 h; series mostly up to 44.9 µM
Inconclusive results are not listed. Activity calls are given as the source filed them. Calls come from the whole dose curve; as a rule, active = well fitted inhibition curve with a large enough effect; inconclusive = small, poorly fitted or top-dose-only effect; inactive = no such curve, though single readings can be large or run the other way. *1 amine or outer side, *2 acyl side, *3 side chain or, on linkers, in order; H or OH if unused. Where a SMILES comes first, the peptide text is derived from it. [ ]: non-standard residue; d: D form. X7 = O=C([C@@H](CC(O)CCl)O[*:1])[*:2]; aIle = CC[C@@H](C)[C@H](N)C(=O)O; NMeV = CN[C@H](C(=O)O)C(C)C; NMeA = CN[C@@H](C)C(=O)O; βAla = NCCC(=O)O
Parameter call: string, one of t for active, f for inactive

IN: Test call for this molecule, please: COc1cccc(NCC(F)Cn2c3ccc(Br)cc3c3cc(Br)ccc32)c1 (stereo not given)
OUT: t

IN: Test call for this molecule, please: N#CC(O[C@@H]1O[C@H](CO)[C@@H](O)[C@H](O)[C@H]1O)c1ccccc1 (stereo not given in full)
OUT: f

IN: Test call for this molecule, please: C#CCO[C@H]1CN2CCC1CC2
OUT: f

IN: Test call for this molecule, please: O=C(C[C@@H]1NCCC[C@H]1O)Cn1cnc2ccccc2c1=O
OUT: t

IN: Test call for this molecule, please: C[C@@H]1O[C@@H](O[C@H]2CC[C@@]3(C)C(CC[C@@H]4C3CC[C@]3(C)[C@@H](C5=CC(=O)OC5)CC[C@]43O)C2)[C@H](O[C@@H]2O[C@H](CO)[C@@H](O)[C@H](O)[C@H]2O)[C@H](O)[C@H]1O (stereo not given in full)
OUT: t

IN: Test call for this molecule, please: C=CCN1CC[C@]23c4c5ccc(O)c4O[C@H]2[C@@H](O)CC[C@@]3(O)[C@H]1C5
OUT: f

IN: Test call for this molecule, please: CC[C@@H](C)[C@H]1C(=O)O[C@H](C(C)C)C(=O)N(C)[C@@H]([C@@H](C)CC)C(=O)O[C@H](C(C)C)C(=O)N(C)[C@@H]([C@H](C)CC)C(=O)O[C@H](C(C)C)C(=O)N1C
OUT: t

IN: Test call for this molecule, please: O=C(NCCCNc1nc(Nc2ccc(N3CCOCC3)cc2)ncc1C1CC1)C1CCC1
OUT: t

IN: Test call for this molecule, please: C[C@]12CC[C@@H](O[C@@H]3O[C@H](CO)[C@@H](O)[C@H](O)[C@H]3O)C[C@@]1(O)CCC1C2CC[C@]2(C)[C@@H](C3=CC(=O)OC3)CC[C@]12O (stereo not given in full)
OUT: t

IN: Test call for this molecule, please: Cc1ccc(Cn2nc(C(=O)N[C@@H]3C(C)(C)[C@@H]4CC[C@@]3(C)C4)cc2-c2ccc(Cl)c(C)c2)cc1
OUT: f

IN: Test call for this molecule, please: CC[C@@H](C)[C@@H]1NC(=O)[C@@H]2CCCN2C(=O)[C@@H](CC(O)CCl)OC(=O)CCNC(=O)[C@H](C)N(C)C(=O)[C@H](C(C)C)N(C)C1=O (stereo not given in full) (cyclo([NMeA][βAla][X7]P[aIle][NMeV]))
OUT: t

IN: Test call for this molecule, please: COC1CC(OC2CCC3(C=O)C(CCC4C3CCC3(C)C(C5=CC(=O)OC5)CCC43O)C2)OC(C)C1O (stereo not given)
OUT: t

IN: Test call for this molecule, please: C[C@@H]1O[C@@H](O[C@H]2CC[C@@]3(C)C(CC[C@@H]4C3CC[C@]3(C)[C@@H](C5=CC(=O)OC5)CC[C@]43O)C2)[C@H](O)[C@H](O)[C@H]1O (stereo not given in full)
OUT: t

IN: Test call for this molecule, please: CC1(C)C(=O)N(c2ccc(C#N)c(C(F)(F)F)c2)C(=S)N1c1ccc(C(N)=O)c(F)c1
OUT: f

IN: Test call for this molecule, please: Fc1cc(F)c2c(c1)[C@H]1C=CC[C@H]1C(c1cccnc1)N2 (stereo not given in full)
OUT: t

----------
Assay: qHTS Assay for Lipid Storage Modulators (AID 1519)
Settings: Drosophila S3 cells, BODIPY lipid droplet/cell ratio, laser cytometry; measured here: lipid channel max response; cells loaded with oleic acid
Inconclusive results are not listed.
Would you kindly list max response for each of these molecules?
Kindly answer with a numeric value in %, unit omitted.

IN: // query max response value for entry C[C@H](N)Cc1c[nH]c2ccc(O)cc12
OUT: 23.2

IN: // query max response value for entry N[C@H](Cc1o[nH]c(=O)c1Cl)C(=O)O
OUT: 4.87

IN: // query max response value for entry COc1ccc(-n2nc(C(F)(F)F)cc2-c2ccc(Cl)cc2)cc1
OUT: -37.8

IN: // query max response value for entry CCCN1C[C@H](C)N([C@H](c2ccc(C(=O)N(CC)CC)cc2)c2cccc(OC)c2)C[C@H]1C
OUT: 30.1

IN: // query max response value for entry CC(O)C(C)OC(=O)[C@@H]1C[C@@H]2c3cccc4c3c(cn4C(C)C)C[C@H]2N(C)C1 (stereo not given in full)
OUT: -0.261

----------
Assay: COV-362 Cancer Cell Toxicity qHTS against the NCATS CANVASS Library (AID 1347352)
Settings: COV-362 viability, CellTiter-Glo luminescence, 72 h; series mostly up to 38.3 µM
Results filed as inconclusive are left out. Active and inactive are the calls of the source. Calls follow the shape of the dose curve; as a rule, active = well fitted cell-killing curve with a large enough effect; inconclusive = small, poorly fitted or top-dose-only effect; inactive = flat fitted curve, though single readings scatter.
Parameter call: string, one of y = active, n = inactive

IN: Test call for this compound, please: O=C(c1ccccc1O)c1[nH]c(Cl)c(Cl)c1-n1c(C(=O)c2ccccc2O)cc(Cl)c1Cl
OUT: y

IN: Test call for this compound, please: CC(=O)N[C@H]1CCN2CCC[C@H]12
OUT: n

IN: Test call for this compound, please: c1ccc2c3c([nH]c2c1)CNCC3
OUT: n

IN: Test call for this compound, please: CNCCc1ccccc1
OUT: n

IN: Test call for this compound, please: CO[C@H](c1ccccc1)[C@H]1NC(=O)C(C)NC(=O)C(C[C@@H](C)CO)N(C)C(=O)[C@@H](C(O)c2cn(C(C)(C)C3CO3)c3ccccc23)NC(=O)C(C(C)C=C(C)C)NC(=O)C(CC(C)C)N(C)C(=O)C(C(C)C)NC1=O (stereo not given in full)
OUT: n

----------
Target: ATP-dependent 6-phosphofructokinase (Trypanosoma brucei brucei) (UniProt O15648)
Sequence (O15648 whole entry, looked up): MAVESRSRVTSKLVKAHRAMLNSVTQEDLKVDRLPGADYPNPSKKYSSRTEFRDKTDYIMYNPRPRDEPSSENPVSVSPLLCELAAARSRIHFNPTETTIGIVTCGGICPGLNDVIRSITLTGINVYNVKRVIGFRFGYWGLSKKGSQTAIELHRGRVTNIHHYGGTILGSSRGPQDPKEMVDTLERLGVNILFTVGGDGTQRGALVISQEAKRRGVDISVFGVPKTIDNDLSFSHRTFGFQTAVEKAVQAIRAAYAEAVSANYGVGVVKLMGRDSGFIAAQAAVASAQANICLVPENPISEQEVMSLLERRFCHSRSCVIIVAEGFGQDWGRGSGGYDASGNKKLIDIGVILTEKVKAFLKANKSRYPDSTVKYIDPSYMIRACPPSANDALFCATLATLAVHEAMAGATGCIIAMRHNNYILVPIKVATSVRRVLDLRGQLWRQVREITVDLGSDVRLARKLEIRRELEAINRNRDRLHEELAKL
Assay: qHTS Assay to Find Inhibitors of T. brucei phosphofructokinase: hit validation (AID 492961)
Conditions: T. brucei PFK, ADP-Glo luminescence; series mostly up to 51.4 µM
From the text: NIH Molecular Libraries Probe Production Network [MLPCN] NIH Chemical Genomics Center [NCGC] Grant: 1 R03 MH092153-01 PI Name: Malcolm Walkinshaw, University of Edinburgh NCGC Assay Overview: Various species of the protozoan family Trypanosomatidae are responsible for a range of serious human diseases in tropical and subtropical areas of the world. […] A luminescence-based assay for T. brucei PFK activity has been developed which uses luciferase to detect production of ADP. […]
Inconclusive results are not listed. Activity calls are given as the source filed them. The call rests on the fitted dose curve; in most records, active means well fitted inhibition curve with a large enough effect; inconclusive means small, poorly fitted or top-dose-only effect, or effect the other way; inactive means flat fitted curve, though single readings scatter.
Parameter call: string, one of 1 (active), -1 (inactive)

IN: Test call for this compound, please: CCN(CC)CCO[C@H]1CC[C@@]2(C)C(=CC[C@@H]3[C@H]2CC[C@]2(C)C(=O)CC[C@H]32)C1
OUT: -1

IN: Test call for this compound, please: C[N+](C)(C)CC(=O)[O-]
OUT: -1

IN: Test call for this compound, please: Oc1cc[c]([Hg][Cl])cc1
OUT: 1

IN: Test call for this compound, please: CCN1C[C@]2(COC)[C@H](O)C[C@H](OC)[C@]34C1C([C@H](OC)[C@H]23)[C@]1(OC(C)=O)C2[C@@H](OC(=O)c3ccccc3)C(O)(C[C@H]24)[C@@H](OC)[C@@H]1O
OUT: -1

IN: Test call for this compound, please: CO[C@H]1[C@@H](O)CC(OC2[C@@H](O)CC(OC3[C@@H](O)C[C@H](OC4CC[C@@]5(C)C(CCC6C5CC(O)[C@]5(C)[C@H](C7=CC(=O)OC7)CCC65O)C4)O[C@@H]3C)O[C@@H]2C)O[C@@H]1C (stereo not given in full)
OUT: -1

----------
Experiment: P-glycoprotein substrates identified in KB-8-5-11 adenocarcinoma cell line, qHTS therapeutic library screen (AID 1346987); note: nearly all actives have a fitted effect of over 65% in size; note: potency is the fitted concentration of half-maximal effect
Conditions: KB-8-5-11 (P-gp overexpressing) viability, CellTiter-Glo, 72 h; series mostly up to 44.5 µM
Method: The ATP-binding cassette transporters P-glycoprotein (P-gp) is known to limit brain penetration of many chemotherapy drugs. […] All cell lines were plated into 1536-well plates at 500 cells/well in 5 uL media. […] CellTiter-Glo reagent (Promega) was dispensed into the wells, incubated for 5 min and luminescence was read on a ViewLux instrument (Perkin-Elmer). […]
Results filed as inconclusive are left out. Calls of active or inactive are those of the source. Calls come from the whole dose curve; as a rule, active = well fitted inhibition curve with a large enough effect; inconclusive = small, poorly fitted or top-dose-only effect; inactive = flat fitted curve, though single readings scatter.
measured-quantity: Potency

O=C(OC[C@H]1O[C@@H](Oc2ccc(O)cc2CO)[C@H](O)[C@@H](O)[C@@H]1O)c1ccccc1    inactive
CC1CCCC(O)CCC/C=C/c2cc(O)cc(O)c2C(=O)O1 (stereo not given)    inactive
CC(=O)O[C@@H]1[C@@H](O)[C@H]2O[C@@H]3C=C(C)[C@@H](O)C[C@]3(CO)[C@]1(C)[C@]21CO1    0.904 µM (active)
CN1C(=O)[C@]23CC4C(C)(C)[C@@]5(C[C@@]41CN2CC[C@@]3(C)O)C(=O)Nc1c5ccc2c1OC=CC(C)(C)O2 (stereo not given in full)    inactive

IN: // query Potency value for entry CN1C(=O)CN=C(c2ccccc2Cl)c2cc(Cl)ccc21
OUT: inactive

IN: // query Potency value for entry O=C(C[C@@H]1NCCC[C@H]1O)Cn1cnc2ccccc2c1=O
OUT: 0.259 µM (active)

IN: // query Potency value for entry COc1ccc(C(C)(C)C)cc1CN[C@H]1C2CCN(CC2)[C@H]1C(c1ccccc1)c1ccccc1
OUT: 18.4 µM (active)

IN: // query Potency value for entry O=C(NCCCNc1nc(Nc2ccc(N3CCOCC3)cc2)ncc1C1CC1)C1CCC1
OUT: 11.6 µM (active)

IN: // query Potency value for entry Nc1ccn(CC(CO)OCP(=O)(O)O)c(=O)n1 (stereo not given)
OUT: inactive

IN: // query Potency value for entry C=C(C)[C@@]12O[C@@H]1[C@@]1(C)C(=CC2=O)CC[C@@H](OC(C)=O)[C@@H]1C
OUT: 5.17 µM (active)

IN: // query Potency value for entry CC[C@@]1(O)C(=O)OCc2c1cc1n(c2=O)Cc2cc3c(OC)cccc3nc2-1
OUT: 0.805 µM (active)

IN: // query Potency value for entry CN[C@@]1(c2ccccc2Cl)CCCCC1=O
OUT: inactive

IN: // query Potency value for entry C=CC(C)(C)C12C=C(O)C(=O)N3/C(=C\c4cnc[nH]4)C(=O)NC31N(OC)c1ccccc12 (stereo not given)
OUT: 7.96 µM (active)

IN: // query Potency value for entry CCCN(CCC)[C@@H]1CCc2ccc3[nH]c(C#N)cc3c2C1
OUT: inactive

IN: // query Potency value for entry CC(=O)O[C@H]1CC[C@@]2(CI)C(=CC[C@@H]3[C@@H]2CC[C@]2(C)C(=O)CC[C@@H]32)C1
OUT: inactive

IN: // query Potency value for entry CN1C2CCC1CC(OC(=O)N1Cc3ccccc3NC1=O)C2 (stereo not given)
OUT: inactive

IN: // query Potency value for entry O=C1CN=C(c2cccc(Br)c2)c2oc3ccccc3c2N1
OUT: 14.6 µM (active)
